# Tested on: SF-539 CNS
# experiment: NCI-60 one-dose screen, 48 h
# measurementParameters: 10 µM unless noted
About 83,000 compounds went through this panel and 20% of them were active in at least one assay; those are over-represented in the sample as a whole. The source made the active and inactive calls. How the source made its calls: active means growth percent below 10; inactive means the rest.
Please state which outcome applies, choosing from class 1 (active), class 0 (inactive)

CC(=O)Cc1cccnc1    class 0
CCc1cccc(-c2ccccc2)c1    class 0
CN1CCN(Cn2nc(-c3cc(Cl)cc(Cl)c3Cl)n(/N=C/c3ccc(Cl)cc3)c2=S)CC1    class 0

# lookup: test call for COc1ccc2c(c1)C(=O)/C(=C/c1ccc(OCC(=O)c3ccc(Cl)cc3)cc1)O2
class 0

# lookup: test call for CC(=O)CC/C=C(\C)[C@H](O)[C@H](C)C(=O)O[C@H]1C[C@H](C)C=C2C=C[C@@]3(C)O[C@@H](O)CC(=O)[C@]3(C)[C@H]21
class 1

# lookup: test call for CC(C)(C)C(=O)Nc1nc2c(s1)CCc1ccn(S(=O)(=O)c3ccccc3)c1-2
class 0

# lookup: test call for CCCCCCCCCCCCCCCCCCNCc1ccc(Cl)cc1
class 1

# lookup: test call for CN(C)CCCOc1c(Br)cc(/C=C/C(=O)N(C)CCc2cc(Br)c(OCCCN(C)C)c(Br)c2)cc1Br
class 1

# lookup: test call for COc1ccc(-c2ccc(NC(=O)Nc3ccc(Cl)c(C(F)(F)F)c3)c(C)n2)cc1
class 0

# lookup: test call for Nc1ccc(S(=O)(=O)Nc2ccnn2-c2ccccc2)cc1
class 0

###

# Tested on: RXF 393 renal
# experiment: NCI-60 one-dose screen, 48 h (100 = growth as untreated, 0 = no growth, -100 = all killed)
# measurementParameters: 10 µM unless noted
# Experimental: Cells are grown in 96 well plates and exposed to the test compound for 48 hours. Compounds are tested at a single concentration, which is 10^-5 M for most compounds. The reported endpoint is percent growth (GI% or GIPRCNT), where numbers from 0 - 100% represent growth inhibition, and numbers from -100% - 0 represent cell death. For example, a value of 40 represents 60% growth inhibition. A value of 0 means no net growth occurred over the course of the experiment. […]
This is part of a sample that, as a whole, favours compounds with a hit. Of some 83,000 tested, about 20% had one in any assay. Active and inactive are the calls of the source. The calls were made as follows: active = growth percent below 10; inactive = the rest.
reportedEndpoint: growth

Cc1ccc2oc(=O)cc(C3C(C#N)=C(N)Oc4c3ccc3ccccc43)c2c1 (stereo not given)    79.2% (inactive)

Return the recorded growth value; entry: COc1ccc(Cl)cc1NC(=O)c1cc2c([nH]1)-c1nc(NC(=O)C(C)C)sc1CC2
109% (inactive)

Return the recorded growth value; entry: CCOc1ccc(-n2c(-c3cc(OC)c(OC)c(OC)c3)nnc2-c2ccc(OC)cc2N)cc1
51.9% (inactive)

Return the recorded growth value; entry: COc1ccc(-n2c(-c3ccc(NC(=O)CCCl)cc3)nnc2-c2cc(OC)c(OC)c(OC)c2)cc1
8.38% (active)

Return the recorded growth value; entry: O=C(CNc1cccnc1)Nc1ccc(C(=O)/C=C/c2ccc(Cl)cc2)cc1
98.8% (inactive)

Return the recorded growth value; entry: CCN(CC)c1ccc(C2CC(c3cc(OC)c(OC)c(OC)c3)=NN2)cc1 (stereo not given)
-20.9% (active)

Return the recorded growth value; entry: COc1cc(Br)c(-c2nc(-c3ccccc3)c(-c3ccccc3)n2Cc2ccccc2)cc1OC
72.2% (inactive)

Return the recorded growth value; entry: CCn1c(SCC(=O)c2ccc(Br)cc2)nnc1-c1cc2c([nH]c3ccccc32)c(-c2cccc(O)c2)n1
1.81% (active)

Return the recorded growth value; entry: O=S(=O)(O)c1ccc(F)cc1
116% (inactive)
